method-summary: Clearance in Sprague-Dawley rat at 1 mg/kg
Assay type: ADME, organism-based
Design: dose 1 mg/kg
condition-set: in vivo
measured-parameter: clearance (mL/min/kg)
Enter your answer as a number in mL/min/kg; do not include the unit.

Query :: For the compound N#Cc1ccc(CNC(=O)N(c2cccc(F)c2)C2CCN(CCC3(c4cccc(F)c4)CCN(C(=O)c4cc(S(N)(=O)=O)c(F)cc4Cl)CC3)CC2)cc1 , give its measured clearance value.
Result :: 9.7

Further cases:
Query :: For the compound N#Cc1ccc(CNC(=O)N(c2cccc(F)c2)C2CCN(CCC3(c4cccc(F)c4)CCN(C(=O)c4cc(S(=O)(=O)N5CCCC5)c(F)cc4F)CC3)CC2)cc1 , give its measured clearance value.
Result :: 29

Query :: For the compound N#Cc1ccc(CNC(=O)N(c2cccc(F)c2)C2CCN(CCC3(c4cccc(F)c4)CCN(C(=O)c4nsnc4O)CC3)CC2)cc1 , give its measured clearance value.
Result :: 124

Query :: For the compound N#Cc1ccc(CNC(=O)N(c2cccc(F)c2)C2CCN(CCC3(c4cccc(F)c4)CCN(C(=O)c4ccnc(Cl)c4)CC3)CC2)cc1 , give its measured clearance value.
Result :: 14.6
